growth values, listed per item
System: NCI/ADR-RES ovarian
Assay: NCI-60 one-dose screen, 48 h (100 = growth as untreated, 0 = no growth, -100 = all killed)
Details: 10 µM
Protocol: Growth inhibition of the NCI/ADR-RES human […] tumor cell line is measured as a screen for anti-cancer activity. Cells are grown in 96 well plates and exposed to the test compound for 48 hours. Compounds are tested at a single concentration, which is 10^-5 M for most compounds. The reported endpoint is percent growth (GI% or GIPRCNT), where numbers from 0 - 100% represent growth inhibition, and numbers from -100% - 0 represent cell death. For example, a value of 40 represents 60% growth inhibition. […]
This is part of a sample that, as a whole, favours compounds with a hit. Of some 83,000 tested, about 20% had one in any assay.
Report as a plain number; the unit % is understood.

MOLECULE	growth, %
CCOc1ccccc1/C=N\N=C\c1ccccc1O	99.9
CC(=O)Nc1ccc2c(c1)C(=O)c1cccc(C(=O)O)c1-2	107
Cc1ccc(NCCN(C)CC(C)O)c2c(=O)c3ccc(Cl)cc3sc12 (stereo not given)	57.8
CCN(CC)CCCOc1cccc2c1C(=O)c1cccc(OCCCN(CC)CC)c1C2=O	35.3

Now take the following molecule into account.
Prompt: Supply reported growth belonging to this molecule: COc1ccc(Cl)cc1Nc1nc(C(F)(F)F)ccc1C(=O)N/N=C/c1ccc(Cl)cc1
Completion: 41

The origin of these recorded values is PubChem BioAssay (NCI).
